measurementTarget: human μ-opiate receptor (Homo sapiens, UniProt P35372)
Sequence (P35372 whole entry): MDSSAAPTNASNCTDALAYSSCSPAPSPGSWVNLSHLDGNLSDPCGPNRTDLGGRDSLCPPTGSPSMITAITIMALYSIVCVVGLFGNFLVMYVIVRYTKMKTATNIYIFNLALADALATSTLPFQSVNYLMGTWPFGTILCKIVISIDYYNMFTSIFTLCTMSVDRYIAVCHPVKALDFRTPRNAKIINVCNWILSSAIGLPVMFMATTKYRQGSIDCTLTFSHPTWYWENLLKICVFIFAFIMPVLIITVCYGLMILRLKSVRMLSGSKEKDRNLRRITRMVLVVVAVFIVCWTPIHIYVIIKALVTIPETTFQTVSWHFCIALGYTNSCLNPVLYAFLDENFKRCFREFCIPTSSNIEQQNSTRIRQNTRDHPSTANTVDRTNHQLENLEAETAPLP
measurementDescription: Affinity for the human μ-opiate receptor ([3H]-naloxone displacement, SPA, CHO-K1 membrane preparation)
Assay type: binding
statedConditions: read-out: μ-Opioid receptor, % inhibition [1 μM]
Catalogue of inhibition at 1 µM readings, one per entry.
The figure you give is taken to be in %; do not add the unit.

Some solved cases for reference:
compound="CN(C)C(c1ccc(F)cc1)C1CCC(NC(=O)c2cccc(Br)c2)CC1 (stereo not drawn) [compound 263]" measvalue=78
compound="CN(C)C(c1ccccc1)C1CCC(NC(=O)COCc2ccccc2)CC1 (stereo not drawn) [compound 254]" measvalue=80
compound="CN(C)C(c1cccc(F)c1)C1CCC(NC(=O)CC(C)(C)C)CC1 (stereo not drawn) [compound 251]" measvalue=81

stdin: What reported inhibition at 1 µM corresponds to Cc1cc(C(=O)NCC2CCC(C(c3ccc(Cl)cc3)N(C)C)CC2)no1 (stereo not drawn) [compound 385] on human μ-opiate receptor (Homo sapiens, UniProt P35372)?
stdout: 82

stdin: What reported inhibition at 1 µM corresponds to CN(C)C(c1ccccc1)C1CCC(CCNC(=O)c2c(Cl)cccc2Cl)CC1 (stereo not drawn) [compound 413] on human μ-opiate receptor (Homo sapiens, UniProt P35372)?
stdout: 81

stdin: What reported inhibition at 1 µM corresponds to CN(C)C(c1ccc(Cl)cc1)C1CCC(CCNC(=O)c2cccc(Cl)c2)CC1 (stereo not drawn) [compound 399] on human μ-opiate receptor (Homo sapiens, UniProt P35372)?
stdout: 80

====

measurementTarget: human μ-opiate receptor (Homo sapiens, UniProt P35372)
measurementDescription: Affinity for the human μ-opiate receptor ([3H]-naloxone displacement, SPA, CHO-K1 membrane preparation)
Assay type: binding
statedConditions: read-out: μ-Opioid receptor, Ki
pKi: −log10 of the molar value. Where a name gives a salt, the structure may show the parent alone.
Assign yes whenever pKi does not fall below 8; assign no whenever it does.

Reference set, count: 3
compound="CN(C)C(c1ccccc1)C1CCC(CNC(=O)c2cccnc2Oc2ccc(Cl)cc2)CC1 (single isomer, unassigned) [compound 360]" classification=no
compound="CN(C)C(c1ccccc1)C1CCC(NCCCCc2ccccc2)CC1 (centres unmarked) [compound 87, hydrochloride]" classification=yes
compound="Cc1cc(C(=O)NC2CCC(C(c3ccccc3)N(C)C)CC2)n(C(C)(C)C)n1 (centres unmarked) [compound 223]" classification=no

stdin: Exam item: decide whether the reported pKi for Cc1cc(C(=O)NCC2CCC(C(c3cccs3)N(C)C)CC2)n(C(C)(C)C)n1 (centres unmarked) is at least 8.
stdout: no

stdin: Exam item: decide whether the reported pKi for CN(C)C(c1ccccc1)C1CCC(CCNC(=O)c2ccc([N+](=O)[O-])cc2)CC1 (centres unmarked) is at least 8.
stdout: no

stdin: Exam item: decide whether the reported pKi for CN(C)C(CCc1ccccc1)C1CCC(NC(=O)c2cc(F)ccc2F)CC1 (centres unmarked) is at least 8.
stdout: no

stdin: Exam item: decide whether the reported pKi for COC(=O)C(Cc1c[nH]c2ccccc12)NC1CCC(C(c2ccccc2)N(C)C)CC1 (single isomer, unassigned) [compound 174] is at least 8.
stdout: yes

====

measurementTarget: human μ-opiate receptor (Homo sapiens)
measurementDescription: Affinity for the human μ-opiate receptor ([3H]-naloxone displacement, SPA, CHO-K1 membrane preparation)
Type: binding
statedConditions: read-out: μ-Opioid receptor, % inhibition [1 μM]
parameter: inhibition at 1 µM

Some solved cases for reference:
compound="CN(C)C(c1cccs1)C1CCC(CCNC(=O)c2cccc(Cl)c2)CC1 (stereo not drawn)" measurementtarget="human μ-opiate receptor (Homo sapiens)" measvalue=99%
compound="CN(C)C(c1cccs1)C1CCC(CNC(=O)Cc2ccc(Cl)cc2)CC1 (stereo not drawn)" measurementtarget="human μ-opiate receptor (Homo sapiens)" measvalue=98%

Below: the item to evaluate.
stdin: What reported inhibition at 1 µM corresponds to COc1ccccc1C(=O)NCCC1CCC(C(c2cccc(F)c2)N(C)C)CC1 (stereo not drawn) on human μ-opiate receptor (Homo sapiens)?
stdout: 99%

====

Catalogue of inhibition at 1 µM readings, one per entry.
measurementTarget: human μ-opiate receptor (Homo sapiens, UniProt P35372)
measurementDescription: Affinity for the human μ-opiate receptor ([3H]-naloxone displacement, SPA, CHO-K1 membrane preparation)
Type: binding
statedConditions: read-out: μ-Opioid receptor, % inhibition [1 μM]
The figure you give is taken to be in %; do not add the unit.

Some solved cases for reference:
compound="COc1ccc(C(=O)NC2CCC(C(c3ccccc3)N(C)C)CC2)c(OC)c1 (stereo not shown) [compound 216]" measvalue=90
compound="COc1c(C(=O)NC2CCC(C(c3ccc(F)cc3)N(C)C)CC2)csc1Cl (stereo not shown) [compound 211]" measvalue=92
compound="CN(C)C(c1ccccc1)C1CCC(CCNC(=O)c2cncc(Br)c2)CC1 (stereo not shown) [compound 473]" measvalue=91
compound="CN(C)C(c1ccccc1)C1CCC(CCNC(=O)c2cccnc2Sc2ccc(Cl)cc2)CC1 (single isomer, unassigned) [compound 470]" measvalue=91

Below: the item to evaluate.
stdin: // inhibition at 1 µM lookup, key: CN(C)C(c1cccc(F)c1)C1CCC(CNC(=O)c2cccs2)CC1 (single isomer, unassigned) [compound 334]
stdout: 92

====

Catalogue of inhibition at 10 µM readings, one per entry.
measurementTarget: Serotonin (5HT) reuptake (Rattus norvegicus)
Construct: synaptosomes are freshly isolated from areas of rat brain; from tissue; host or cells: rat brain synaptosomes (P2 fraction)
Sequence (P31652 whole entry): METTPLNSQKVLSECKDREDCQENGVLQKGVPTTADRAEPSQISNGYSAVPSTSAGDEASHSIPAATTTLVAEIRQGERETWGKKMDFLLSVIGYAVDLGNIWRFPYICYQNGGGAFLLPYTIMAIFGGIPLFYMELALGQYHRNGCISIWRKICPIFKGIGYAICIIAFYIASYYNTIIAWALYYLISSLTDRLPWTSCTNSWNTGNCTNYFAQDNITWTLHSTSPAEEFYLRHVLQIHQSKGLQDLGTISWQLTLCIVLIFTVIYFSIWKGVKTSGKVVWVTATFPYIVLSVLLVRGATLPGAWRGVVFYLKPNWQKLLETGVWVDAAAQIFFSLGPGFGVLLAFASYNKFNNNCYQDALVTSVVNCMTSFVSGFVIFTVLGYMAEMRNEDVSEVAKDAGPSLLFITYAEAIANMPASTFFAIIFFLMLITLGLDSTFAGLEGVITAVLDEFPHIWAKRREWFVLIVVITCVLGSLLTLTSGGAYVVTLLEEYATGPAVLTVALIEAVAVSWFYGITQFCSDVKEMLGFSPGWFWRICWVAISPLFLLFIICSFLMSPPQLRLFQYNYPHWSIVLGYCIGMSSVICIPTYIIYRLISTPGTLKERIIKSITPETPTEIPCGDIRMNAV
measurementDescription: Serotonin (5HT) reuptake inhibition in rat brain synaptosomes (P2 fraction)
Assay type: biochemical
statedConditions: read-out: Serotonin reuptake, % inhibition [10 μM]
Counter-ions that a name gives are not always drawn.
Number first, unit second.

Some solved cases for reference:
compound="CC(=O)N(CCCCc1ccccc1)C1CCC(C(c2ccccc2)N(C)C)CC1 (stereo not shown) [compound 98, hydrochloride]" measvalue=74%
compound="CCOC(=O)CCC1CCC(C(CCc2ccccc2)N(C)C)CC1 (stereo not shown) [compound 142]" measvalue=84%
compound="CN(C)C(c1ccccc1)C1CCC(CCO)CC1 (stereo not shown) [compound 125]" measvalue=82%
compound="CN(C)C(CCc1ccccc1)C1CCC(CCN)CC1 (stereo not shown) [compound 72]" measvalue=79%
compound="CN(C)C(c1ccccc1)C1CCC(NCCc2ccccc2)CC1 (stereo not shown) [compound 84, hydrochloride]" measvalue=76%

stdin: // inhibition at 10 µM lookup, key: CN(C)C(c1ccccc1)C1CCC(O)(Cc2ccc(F)cc2)CC1 (stereo not shown) [compound 148, hydrochloride]
stdout: 90%

stdin: // inhibition at 10 µM lookup, key: CN(C)C(c1cccs1)C1CCC(N)CC1 (stereo not shown) [compound 25]
stdout: 71%

stdin: // inhibition at 10 µM lookup, key: CN(C)C(c1ccccc1)C1CCC(OCc2ccc(F)cc2)CC1 (stereo not shown) [compound 145, hydrochloride]
stdout: 83%

stdin: // inhibition at 10 µM lookup, key: CCC(CC)C(=O)NC1CCC(C(c2ccccc2)N(C)C)CC1 (stereo not shown) [compound 93, hydrochloride]
stdout: 75%

stdin: // inhibition at 10 µM lookup, key: CN(C)C(c1ccc(Cl)cc1)C1CCC(CC=O)CC1 (stereo not shown) [compound 55]
stdout: 88%

====

measurementTarget: UniProt:P35372
measurementDescription: Affinity for the human μ-opiate receptor ([3H]-naloxone displacement, SPA, CHO-K1 membrane preparation)
Type: binding
statedConditions: read-out: μ-Opioid receptor, % inhibition [1 μM]
Catalogue of inhibition at 1 µM readings, one per entry.
The figure you give is taken to be in %; do not add the unit.

compound="CC(Oc1ccccc1)C(=O)NCC1CCC(C(c2cccc(F)c2)N(C)C)CC1 (stereo not drawn) [compound 346]" measvalue=90

stdin: // inhibition at 1 µM lookup, key: CN(C)C(c1ccccc1)C1CCC(NC(=O)c2csc3ccccc23)CC1 (stereo not drawn)
stdout: 103

stdin: // inhibition at 1 µM lookup, key: CN(C)C(c1ccccc1)C1CCC(CCNC(=O)c2ccc(F)c(F)c2)CC1 (stereo not drawn)
stdout: 101

====

Catalogue of inhibition at 1 µM readings, one per entry.
measurementTarget: human μ-opiate receptor (Homo sapiens, UniProt P35372)
measurementDescription: Affinity for the human μ-opiate receptor ([3H]-naloxone displacement, SPA, CHO-K1 membrane preparation)
Format: binding
statedConditions: 1 μM test substance; inhibition of specific [3H]-naloxone binding; read-out: μ-Opioid receptor, % inhibition [1 μM]
Structures can show the parent of a compound that is named as a salt.
The figure you give is taken to be in %; do not add the unit.

molecule="COc1ccc(OC)c(C2(O)CCC(C(c3ccccc3)N(C)C)CC2)c1 (centres unmarked) [compound 149, hydrochloride]" unitsofmeasure=% measvalue=82
molecule="CN(C)C(c1ccc(Cl)cc1)C1CCC(O)(c2ccc(F)cc2)CC1 (centres unmarked)" unitsofmeasure=% measvalue=59
molecule="CN(C)C(c1ccccc1)C1CCC(CCO)CC1 (centres unmarked)" unitsofmeasure=% measvalue=62
molecule="Cc1ccccc1C1(O)CCC(C(c2ccc(Cl)cc2)N(C)C)CC1 (centres unmarked)" unitsofmeasure=% measvalue=60
molecule="CCOC(=O)C=C1CCC(C(c2ccccc2)N(C)C)CC1 (centres unmarked)" unitsofmeasure=% measvalue=75
molecule="CN(C)C(c1ccccc1)C1CCC(N)CC1 (centres unmarked)" unitsofmeasure=% measvalue=83
molecule="CN(C)C(c1cccs1)C1CCC(CO)CC1 (centres unmarked)" unitsofmeasure=% measvalue=61
molecule="CN(C)C(c1ccc(Cl)cc1)C1CCC(CN)CC1 (centres unmarked)" unitsofmeasure=% measvalue=56
molecule="COc1ccc(NC2CCC(C(c3ccccc3)N(C)C)CC2)cc1 (centres unmarked) [compound 89, hydrochloride]" unitsofmeasure=% measvalue=95
molecule="CCOC(=O)C=C1CCC(C(c2cccc(F)c2)N(C)C)CC1 (centres unmarked)" unitsofmeasure=% measvalue=47

stdin: // inhibition at 1 µM lookup, key: CN(C)C(c1cccc(F)c1)C1CCC(CN)CC1 (centres unmarked)
stdout: 68

stdin: // inhibition at 1 µM lookup, key: Cc1ccc(C2(O)CCC(C(c3ccc(Cl)cc3)N(C)C)CC2)cc1 (centres unmarked)
stdout: 52

stdin: // inhibition at 1 µM lookup, key: CN(C)C(CCc1ccccc1)C1CCC(CCCO)CC1 (centres unmarked)
stdout: 24

stdin: // inhibition at 1 µM lookup, key: Cc1cc(C2(O)CCC(C(c3ccc(Cl)cc3)N(C)C)CC2)ccc1F (centres unmarked)
stdout: 67

stdin: // inhibition at 1 µM lookup, key: CN(C)C(c1cccc(F)c1)C1CCC(O)(c2cc(Cl)cc(Cl)c2)CC1 (centres unmarked)
stdout: 77

stdin: // inhibition at 1 µM lookup, key: CN(C)C(c1ccccc1)C1CCC(NCCCc2ccccc2)CC1 (centres unmarked) [compound 85, dihydrochloride]
stdout: 98

stdin: // inhibition at 1 µM lookup, key: CC(Cc1c[nH]c2ccccc12)NC1CCC(C(c2ccccc2)N(C)C)CC1 (centres unmarked) [compound 88, hydrochloride]
stdout: 99
